src = ChEMBL document CHEMBL1201862

# Tested on: CCRF-CEM
# assay_explanation: NCI tumour cell line growth inhibition, 48 h
Where a name gives a salt, the structure may show the parent alone. The source made the active and inactive calls. Rule as the data show it: active = GI50 up to about 1.1 µM and inactive = higher.
For each record, write down the corresponding GI50.

Q: Quick check: GI50 of `O=[N+]([O-])/C(C(Cl)=C(Cl)Cl)=C(\SCc1ccccc1)N1CCCCC1` ?
A: 8.34 µM (inactive)

Q: Reported GI50 for `Cc1n[nH]c(N)c1C(N)=O` : what is it?
A: > 100 µM (inactive)

Q: # query: GI50 of entry `OC(c1ccc(Cl)cc1)(c1ccc(Cl)cc1)c1cncnc1`
A: 15.3 µM (inactive)

Q: Which GI50 value is on record for COC(=O)C(CC(=O)c1c[nH]c2ccccc12)c1c[nH]c2ccccc12 (stereo unspecified) ?
A: 17.9 µM (inactive)

Q: Using the record for CNC(C)Cc1ccccc1OC (stereo unspecified) [METHOXYPHENAMINE HYDROCHLORIDE] , report its GI50.
A: > 100 µM (inactive)

Q: # GI50 lookup, item `O=c1cc(-c2ccccc2)oc2cc(Oc3nnnn3-c3ccccc3)ccc12`
A: 69.2 µM (inactive)

Q: Entry under review: `CCOc1ccc(-n2c(=O)n3c(Nc4ccc(Cl)cc4)nc4c(c(=O)n(C)c(=O)n4C)n3c2=O)cc1` . Reported GI50?
A: 20.8 µM (inactive)

Q: Which GI50 reading was recorded for the compound `CSc1nc(SC)c2c(CN=[N+]=[N-])c(Br)n(Cc3ccccc3)c2n1` ?
A: 72.6 µM (inactive)

Q: Consider the compound `O=C1C[C@@H](c2ccccc2)O[C@@H](c2ccccc2)C1` and give its measured GI50.
A: > 100 µM (inactive)

Q: Which measured GI50 value corresponds to CC1=NN(C(=O)CC(=O)Nc2ccccc2F)C(=O)C1/N=N/c1ccccc1[N+](=O)[O-] (stereo unspecified) ?
A: 79.6 µM (inactive)

Q: Endpoint output: GI50 of `CC(C)(C)OC(=O)c1cnc(Cl)cn1` . Value?
A: 18.7 µM (inactive)
